Assay: chemical genetic growth profiling, strain panel (AID 1159580);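 also: tested at 20 µM; growth read once vehicle control cultures reached saturation at 30 °C; 1 = growth at the plate median or of vehicle wells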
Conditions: S. cerevisiae deletion strains, growth OD, locus YGR040W, strain KSS1
Among all 5,500 compounds or so, about 2,000 (36%) were called active. About 18% were inconclusive and are not listed. Rule as the data show it: active = normalized growth mostly below about 0.91 (no sharp cut-off); inconclusive = no clear call, values can overlap the other calls; inactive = mostly above about 0.92. The list shows a part of the results.
Outcomes you can answer with include only these: 1 (active), 0 (inactive)

### Prompt Outcome? C/C(=N/NC(N)=S)c1csc(-c2ccccc2)n1
### Response 0

### Prompt Outcome? COc1ccc(Br)c(C(=O)/C(C#N)=C/c2cccs2)c1
### Response 1

### Prompt Outcome? N#Cc1ccc2[nH]cc(CCN(Cc3ccccc3)Cc3ccccc3)c2c1
### Response 0

### Prompt Outcome? N/C(=N/OC(=O)c1ccc([N+](=O)[O-])cc1)c1c(Cl)cccc1Cl
### Response 0

### Prompt Outcome? O=c1cc(CSc2ccc(Cl)cc2)c2ccc(O)cc2o1
### Response 1

### Prompt Outcome? CO/N=C1/CC(C)(C)Cc2c(-c3ccn(C(=O)Nc4cccc(Cl)c4)n3)sc(SC)c21
### Response 0

====

Assay: chemical genetic growth profiling, strain panel (AID 1159580);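 also: tested at 20 µM; growth read once vehicle control cultures reached saturation at 30 °C; 1 = growth at the plate median or of vehicle wells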
Details: S. cerevisiae deletion strains, growth OD, locus YFR003C, strain YPI1, stronger effect = lower value
The campaign covered roughly 5,500 compounds. About 2,000 (36%) were called active. Roughly 18% stayed inconclusive and do not appear here. Some of the results follow.
assay metric: normalized growth
Reply with the value as a number alone.

Memo: OC(COCc1ccccc1)Cn1c2ccccc2c2ccccc21 (stereo unspecified) , reported normalized growth: 0.947

Memo: CCOC(=O)NC(=S)Nc1ccc(C(C)(C)C)cc1NC(=S)NC(=O)OCC , reported normalized growth: 0.986

Memo: CC1(C)C=Cc2cc(/C(N)=N\OC(=O)Nc3cccc(C(F)(F)F)c3)ccc2O1 , reported normalized growth: 0.984

Memo: O=C(NC(=S)NNc1ncc(C(F)(F)F)cc1Cl)c1cccs1 , reported normalized growth: 0.738

Memo: COc1ccc(Br)c(C(=O)/C(C#N)=C/c2cccs2)c1 , reported normalized growth: 0.918

Memo: CCn1nc(C)cc1C(=O)Sc1cccc(Br)c1 , reported normalized growth: 0.932

Memo: O=C(O/N=C1/CCCc2[nH]c3ccccc3c21)C1CCCCC1 , reported normalized growth: 0.961

Memo: CC(C)/C(=N/OC(=O)c1ccc([N+](=O)[O-])cc1)c1ccccc1 , reported normalized growth: 0.96

Memo: O=C1OC(c2ccccc2)=C/C1=C/c1ccccc1 , reported normalized growth: 0.956

Memo: N/C(=N/OC(=O)Nc1cccc(C(F)(F)F)c1)c1ccc(OC(F)(F)F)cc1 , reported normalized growth: 0.994

Memo: O=C(O/N=C1/CCCc2[nH]c3ccccc3c21)c1ccc(Cl)cc1Cl , reported normalized growth: 0.973

====

Assay: chemical genetic growth profiling, strain panel (AID 1159580);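 also: tested at 20 µM; growth read once vehicle control cultures reached saturation at 30 °C; 1 = growth at the plate median or of vehicle wells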
Conditions: S. cerevisiae deletion strains, growth OD, locus YHR030C, strain SLT2
Out of some 5,500 compounds screened, about 2,000 (36%) were called active. Not shown: some 18% with an inconclusive outcome. No stated cut-off is given here; in the data, active means normalized growth mostly below about 0.91 (no sharp cut-off); inconclusive means no clear call, values can overlap the other calls; inactive means mostly above about 0.92. This is one part of the list.
Outcomes you can answer with include only these: 1.0 (active), 0.0 (inactive)

### Prompt Outcome? N#CCS(=O)(=O)c1cccs1
### Response 0.0

### Prompt Outcome? NC(N)=NC(N)=Nc1cc(Cl)cc(Cl)c1
### Response 0.0

### Prompt Outcome? COc1cc(C(=O)O)cc(OC)c1OC
### Response 0.0

### Prompt Outcome? COc1ccc(-c2cc(=O)c3c(O)c(OC)c(OC)c(OC)c3o2)cc1OC
### Response 0.0

### Prompt Outcome? Cc1ccc(Cl)cc1NC(=S)N(CCC#N)/N=C\c1ccc2c(c1)OCO2
### Response 0.0

### Prompt Outcome? COC(=O)Cc1cc(OC)c(OC)cc1[N+](=O)[O-]
### Response 0.0

### Prompt Outcome? Cc1ccc(Sc2ncccc2NS(=O)(=O)c2ccc(Cl)cc2)cc1
### Response 1.0

### Prompt Outcome? CC(=O)CS(=O)(=O)c1ccc(Cl)cc1
### Response 0.0

### Prompt Outcome? COC(CNc1cccc(Cl)c1C#N)OC
### Response 0.0

### Prompt Outcome? O=C(O)C1CC(=O)N(Cc2ccccc2Cl)C1 (stereo unspecified)
### Response 0.0

### Prompt Outcome? CNC(=S)N/N=C\c1cc(Br)cc(Br)c1O
### Response 1.0

### Prompt Outcome? COC(=O)C(c1ccccc1)C1CCCCN1 (stereo unspecified)
### Response 0.0

### Prompt Outcome? COc1ccc(Br)c(-c2nnc(-c3ccccc3[N+](=O)[O-])o2)c1
### Response 0.0

### Prompt Outcome? COc1ccc(-c2cc(=O)c3c(O)c(OC)c(OC)cc3o2)cc1O
### Response 0.0

### Prompt Outcome? CCOC(=O)/C(C#N)=C/Nc1ccc2c(c1)OCO2
### Response 1.0

### Prompt Outcome? COc1cc([N+](=O)[O-])c(OC)cc1SCC(=O)NNC(=O)c1cc(OC)c(OC)c(OC)c1
### Response 0.0

### Prompt Outcome? C=CCSC[C@@H](N)C(=O)O
### Response 0.0

### Prompt Outcome? CC(=O)OCC(=O)[C@@]1(O)CCC2C3CCC4=CC(=O)C=C[C@]4(C)[C@@]3(Cl)[C@@H](Cl)C[C@@]21C (stereo partly specified)
### Response 0.0

### Prompt Outcome? CC(C)(C)OC(=O)NCc1n[nH]c(=S)n1-c1ccccc1
### Response 0.0

### Prompt Outcome? Cc1cc(N)c2ccccc2[n+]1CCCCCCCCCC[n+]1c(C)cc(N)c2ccccc21
### Response 1.0

### Prompt Outcome? FC(F)(F)Oc1ccc(OCc2n[nH]c(=S)n2-c2ccc(Cl)cc2)cc1
### Response 0.0

### Prompt Outcome? NC(N)=Nc1ccc(Cl)cc1
### Response 0.0

### Prompt Outcome? C=CCSCC=C
### Response 0.0

### Prompt Outcome? NC(=S)CS(=O)(=O)c1ccc(C(F)(F)F)cc1
### Response 0.0

### Prompt Outcome? N/C(=N/OC(=O)c1cnn(-c2ccc([N+](=O)[O-])cc2)c1C(F)(F)F)c1ccc(Cl)cc1
### Response 0.0

### Prompt Outcome? CC(C)(C)c1ccc(Oc2ncccc2NC(=O)c2ccccc2C(F)(F)F)cc1
### Response 0.0

### Prompt Outcome? O=C1CC(=O)CC(c2ccc(Cl)c(Cl)c2)C1
### Response 0.0

### Prompt Outcome? CC(C)/C(=N/OC(=O)c1ccc([N+](=O)[O-])cc1)c1ccccc1
### Response 1.0

### Prompt Outcome? c1ccc(-c2ncc3ccccn23)cc1
### Response 0.0

### Prompt Outcome? O=c1cc(CSc2ccc(Cl)cc2)c2ccc(O)cc2o1
### Response 1.0

### Prompt Outcome? COC(=O)c1cccnc1Sc1ccc(C)cc1
### Response 1.0

### Prompt Outcome? O=S(=O)(Nc1ccccc1Sc1c(Cl)cncc1Cl)c1ccc(Cl)cc1
### Response 0.0

### Prompt Outcome? Cc1cc(Br)c(O)c(/C=N\NC(=S)NC(C)(C)C)c1
### Response 1.0

### Prompt Outcome? CC(C)(C)NC(=S)N/N=C\c1cc(Br)c(O)c(Br)c1
### Response 1.0

### Prompt Outcome? O=C(OCc1ccccc1Br)c1cc([N+](=O)[O-])cc([N+](=O)[O-])c1
### Response 0.0

### Prompt Outcome? Cc1ccc(Sc2nc(C)c([N+](=O)[O-])c(C)c2C#N)cc1
### Response 1.0
